# Tested on: skin and the mucous membranes, particularly of the mouth, of the nasal fossa and of the throat
# ASSAY_NOTES: Organoleptic and physiological qualities of the compounds, noted by the inventors and flavor experts
# Format: in vivo
# CONDITIONS: Tables I-V
PROPERTY_NAME: Organoleptic qualities

Worked set:
CC1CCC(C(C)C)C(CC(=O)Nc2ccc(CC#N)cc2)C1 (centres unmarked) = Warm
CC1CCC(C(C)C)C(CC(=O)NCC(=O)O)C1 (centres unmarked) = Warm
CNC(=O)CC(C)C1CC(C)CCC1C(C)C (centres unmarked) = Cool
C=C(C)C1CCC(C)CC1CC(=O)NC (centres unmarked) = Refreshing
CNC(=O)C=C1CC(C)CCC1C(C)C (centres unmarked) = Refreshing
CNC(=O)CC1=C(C(C)C)CCC(C)C1 (centres unmarked) = Refreshing
CC1CCC(C(C)C)C(CC(=O)Nc2ccc(C#N)cc2)C1 (centres unmarked) = Warm

Now consider a different molecule.
**Q:** What does the record list as Organoleptic qualities for COC(=O)c1ccccc1NC(=O)CC1CC(C)CCC1C(C)C (centres unmarked) ?
**A:** Warm
